B1: Membrane-associated guanylate kinase, WW and PDZ domain-containing protein 1, residues 352 to 401; numbered along this chain, Q96QZ7 (parent)
chain: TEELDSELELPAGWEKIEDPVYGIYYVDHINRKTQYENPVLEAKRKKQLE

variants of: B1; test: abundance fitness (aPCA) (normalised: wild type 0, dead -1); higher = more abundant; growth selection in yeast, the domain comes from the species named; conditions: Homo sapiens
Assign label 1 to entries whose abundance fitness meets or exceeds -0.4; assign label 0 to the rest.

variant.code: R45Y
category: label 1
--
variant.code: G13T
category: label 0
--
variant.code: D19R
category: label 0
--
variant.code: K16M
category: label 1
--
variant.code: Y36C
category: label 0
--
variant.code: P11T
category: label 1
--
variant.code: L4F
category: label 1
--
variant.code: E37H
category: label 1
--
variant.code: V40M
category: label 1
--
variant.code: Y22K
category: label 1
--
variant.code: L10C
category: label 1
--
variant.code: L4A
category: label 1
--
variant.code: E7G
category: label 1
--
variant.code: N31Q
category: label 1
--
variant.code: N38A
category: label 1
--
variant.code: Y22M
category: label 1
--
variant.code: N38T
category: label 1
--
variant.code: P11S
category: label 0
--
variant.code: L41H
category: label 1
--
variant.code: L4V
category: label 1
--
variant.code: Y36A
category: label 1
--
variant.code: Y26R
category: label 0

Data origin: the Human Domainome abundance scans (Beltran et al. 2025)
